Data provenance is patent US20180016327A1.

- Study system: T1, human C5 (human, UniProt P01031 19-673; P01031 678-1676, Beta and alpha chains are disulfide-linked and the protein is glycosylated.)
- T1 construct: Either in-house recombinant C5 or plasma derived C5 (CALBIOCHEM) was used; also called recombinant human C5; plasma derived human C5
- Protocol notes: Biacore, captured antibody, pH 7.4, 37 C;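 also: biacore binding response of anti-C5 antibody light chain variants captured on chip with human C5 injected, ACES running buffer containing 1.2 mM CaCl₂, parent light chain antibody set to 100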
Binarize % binding (parent = 100) at 10%; below is Met, at or above is Not met.

CFP0011 11L 96H (antibody, V domains shown) VH: QVQLVQSGAEVKKPGSSVKVSCKASGGTFSSYAISWVRQAPGQGLEWMGGIIPIFGTANYAQKFQGRVTITADESTSTAYMELSSLRSEDTAVYYCARDMSEFLGWSNYYSYPMDVWGQGTTVTVSS VL: DIQMTQSPSSLSASVGDRVTITCRASQSIEDDLAWYQQKPGKAPKLLIYHASSLQSGVPSRFSGSGSGTDFTLTISSLQPEDFATYYCQQSDNSPHTFGQGTKVEIK ... Met
CFP0021 21L 93N (antibody, V domains shown) VH: QVQLVESGGGLVQPGGSLRLSCAASGFTFSDHYMDWVRQAPGKGLEWVGRTRNKANSYTTEYAASVKGRFTISRDDSKNSLYLQMNSLKTEDTAVYYCARTGMMYWGIFDVWGQGTLVTVSS VL: DIQMTQSPSSLSASVGDRVTITCRASQSIEDDLAWYQQKPGKAPKLLIYHASTLQSGVPSRFSGSGSGTDFTLTISSLQPEDFATYYCQQHDNYPLTFGQGTKVEIK ... Not met
CFP0018 18L 92T (antibody, V domains shown) VH: QVQLVQSGAEVKKPGSSVKVSCKASGGTFSSYAISWVRQAPGQGLEWMGGIIPIFGTANYAQKFQGRVTITADESTSTAYMELSSLRSEDTAVYYCARQLYGYYELDIWGQGTLVTVSS VL: DIQMTQSPSSLSASVGDRVTITCRASQSISDDLAWYQQKPGKAPKLLIYEASSLQSGVPSRFSGSGSGTDFTLTISSLQPEDFATYYCQQYTSYPLTFGQGTKVEIK ... Not met
CFP0015 15L 32H (antibody, V domains shown) VH: QVQLLESGGGLVQPGGSLRLSCAASGFTFSSYAMSWVRQAPGKGLEWVSAISGSGGSTYYADSVKGRFTISRDNSKNTLYLQMNSLRAEDTAVYYCARGDQIWYDQWYYFDMWGQGTLVTVSS VL: DIQMTQSPSSLSASVGDRVTITCRASQSIEDHLAWYQQKPGKAPKLLIYEASNLQSGVPSRFSGSGSGTDFTLTISSLQPEDFATYYCQQYDSSPLTFGQGTKVEIK ... Met
CFP0018 (antibody, V domains shown, IgG format) VH: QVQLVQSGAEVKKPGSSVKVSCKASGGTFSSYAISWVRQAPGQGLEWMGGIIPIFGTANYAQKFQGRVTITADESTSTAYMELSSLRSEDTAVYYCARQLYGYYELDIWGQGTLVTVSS VL: DIQMTQSPSSLSASVGDRVTITCRASQSISDDLAWYQQKPGKAPKLLIYEASSLQSGVPSRFSGSGSGTDFTLTISSLQPEDFATYYCQQYNSYPLTFGQGTKVEIK ... Not met
CFP0011 11L 92S (antibody, V domains shown) VH: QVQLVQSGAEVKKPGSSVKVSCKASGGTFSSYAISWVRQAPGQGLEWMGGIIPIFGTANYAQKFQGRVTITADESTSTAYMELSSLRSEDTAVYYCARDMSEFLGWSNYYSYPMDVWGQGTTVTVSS VL: DIQMTQSPSSLSASVGDRVTITCRASQSIEDDLAWYQQKPGKAPKLLIYHASSLQSGVPSRFSGSGSGTDFTLTISSLQPEDFATYYCQQSSNSPYTFGQGTKVEIK ... Met
CFP0015 15L 50Q (antibody, V domains shown) VH: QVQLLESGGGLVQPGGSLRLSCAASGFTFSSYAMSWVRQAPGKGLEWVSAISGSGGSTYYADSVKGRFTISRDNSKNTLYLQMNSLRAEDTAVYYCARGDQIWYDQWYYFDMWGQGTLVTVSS VL: DIQMTQSPSSLSASVGDRVTITCRASQSIEDDLAWYQQKPGKAPKLLIYQASNLQSGVPSRFSGSGSGTDFTLTISSLQPEDFATYYCQQYDSSPLTFGQGTKVEIK ... Not met
CFP0018 18L 96Y (antibody, V domains shown) VH: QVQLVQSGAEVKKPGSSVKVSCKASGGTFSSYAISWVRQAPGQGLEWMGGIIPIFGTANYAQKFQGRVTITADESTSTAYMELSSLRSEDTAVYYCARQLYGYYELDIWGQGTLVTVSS VL: DIQMTQSPSSLSASVGDRVTITCRASQSISDDLAWYQQKPGKAPKLLIYEASSLQSGVPSRFSGSGSGTDFTLTISSLQPEDFATYYCQQYNSYPYTFGQGTKVEIK ... Not met
CFP0021 (antibody, V domains shown, IgG format) VH: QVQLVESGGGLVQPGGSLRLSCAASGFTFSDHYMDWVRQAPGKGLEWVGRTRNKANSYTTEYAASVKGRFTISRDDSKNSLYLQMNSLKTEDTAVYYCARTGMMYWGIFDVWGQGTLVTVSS VL: DIQMTQSPSSLSASVGDRVTITCRASQSIEDDLAWYQQKPGKAPKLLIYHASTLQSGVPSRFSGSGSGTDFTLTISSLQPEDFATYYCQQHDSYPLTFGQGTKVEIK ... Not met
CFP0011 11L 30H (antibody, V domains shown) VH: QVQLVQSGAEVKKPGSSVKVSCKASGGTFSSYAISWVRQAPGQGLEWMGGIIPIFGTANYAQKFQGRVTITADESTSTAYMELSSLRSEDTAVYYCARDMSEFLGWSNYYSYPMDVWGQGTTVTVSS VL: DIQMTQSPSSLSASVGDRVTITCRASQSIHDDLAWYQQKPGKAPKLLIYHASSLQSGVPSRFSGSGSGTDFTLTISSLQPEDFATYYCQQSDNSPYTFGQGTKVEIK ... Not met
